Test system: CEM cells HIV-1 protection, formazan growth assay
Test Protocol: NCI AIDS Antiviral Assay
Property Name: EC50

[[record]]
compound = "CCC1=NC(C(F)(F)F)(C(F)(F)F)N=C(/N=C(/N)N(C)C(C(C)C)P(=O)(OC(C)C)OC(C)C)O1 (configuration not stated)"
observed_measurement = "> 200 µM"

[[record]]
compound = "O=[N+]([O-])c1ccccc1S(=O)NCc1c(Cl)cccc1Cl (configuration not stated)"
observed_measurement = "> 200 µM"

[[record]]
compound = "CCOC(=O)/C(=C\\c1ccc(F)cc1)[Se]c1ccccc1"
observed_measurement = "> 38.9 µM"

[[record]]
compound = "O=C1C=Cc2ccccc2/C1=C/c1[nH]c(=O)[nH]c1O"
observed_measurement = "> 200 µM"

[[record]]
compound = "O=C(OCCN=c1c2ccccc2ccc2ccccc12)c1ccccc1"
observed_measurement = "> 200 µM"

[[record]]
compound = "CC(=O)NC1=C(C)C(=O)c2c(nc3n2CCC3OC(=O)c2ccccc2)C1=O (configuration not stated)"
observed_measurement = "> 200 µM"

[[record]]
compound = "O=C1C(Cl)N(c2ccc(Cl)cc2)C1c1c[nH]c2ccccc12 (configuration not stated)"
observed_measurement = "> 204 µM"

[[record]]
compound = "CC[C@H](CCCC[C@H]1CC[C@@H]2CC(=O)C[C@H]12)OC"
observed_measurement = "> 200 µM"

[[record]]
compound = "Nc1nnc2nc(CC(=O)/C=C/c3ccccc3)c(=O)[nH]n12"
observed_measurement = "> 170 µM"

[[record]]
compound = "CC1=Nc2ccccc2S/C1=C1/C=NC(=NC#N)N=C1C(=O)Nc1cccc(Cl)c1"
observed_measurement = "> 83.2 µM"

[[record]]
compound = "COc1ccc(N2C(=O)/C(=C\\c3cccc(Oc4ccccc4)c3)SC2c2ccccc2)cc1 (configuration not stated)"
observed_measurement = "> 200 µM"

[[record]]
compound = "S=C1NC2=C(COc3ccccc32)C(c2ccc(Cl)cc2)N1 (configuration not stated)"
observed_measurement = "> 200 µM"

[[record]]
compound = "CC(C(=O)O)c1ccc(C(=O)c2cccs2)cc1 (configuration not stated)"
observed_measurement = "> 200 µM"

[[record]]
compound = "CCOC(=O)/C=C\\SCCC(=O)O"
observed_measurement = "> 1230 µM"

[[record]]
compound = "COc1c(C)c2c(c(=O)c3c(C)cccc3n2C)c2c1c(=O)c1c(C)cccc1n2C"
observed_measurement = "> 200 µM"

[[record]]
compound = "CCOC(=O)C(NC(=O)c1nc[nH]c1[N+](=O)[O-])C(C)C (configuration not stated)"
observed_measurement = "> 91.2 µM"

[[record]]
compound = "Nc1ccccc1SC(CC(=O)c1ccccc1)c1ccc2c(c1)OCO2 (configuration not stated)"
observed_measurement = "> 200 µM"

[[record]]
compound = "Cn1c(=O)c2c(ncn2CCCCn2ccnc2[N+](=O)[O-])n(C)c1=O"
observed_measurement = "> 200 µM"

[[record]]
compound = "CN(CCNC(=O)c1cc(-c2ccccc2)nc2ccccc12)CCNC(=O)c1cc(-c2ccccc2)nc2ccccc12"
observed_measurement = "> 20 µM"

[[record]]
compound = "Nc1ccnc(N)c1N=O"
observed_measurement = "> 200 µM"

[[record]]
compound = "CN(C)c1ccc(-c2c(C#N)c(O)n(NS(=O)(=O)c3ccccc3)c(=O)c2C#N)cc1"
observed_measurement = "> 200 µM"

[[record]]
compound = "Cc1n(Cc2ccccc2)nc2sc(N)n[n+]12"
observed_measurement = "> 200 µM"


Cited source: PubChem BioAssay AID179
